- System: PC-3
- Assay Name: NCI tumour cell line growth inhibition, 48 h
Calls of active or inactive are those of the source. No stated cut-off is given here; in the data, active = GI50 up to about 1.1 µM and inactive = higher.
Quantity Kind: GI50

Compound	Observed Result
O=C(CCCn1ccnc1[N+](=O)[O-])NCCn1ccnc1[N+](=O)[O-]	> 100 µM (inactive)

### Prompt Recorded GI50 of CCn1c2ccccc2c2ccc(C3C4C(=O)N(c5cccc6ccccc56)C(=O)C4ON3C(C(N)=O)c3ccccc3)cc21 (stereo not given) , please.
### Response 14.2 µM (inactive)

### Prompt Recorded GI50 of `CCC1=NC(N/N=C/c2ccco2)=N/C1=C\c1ccccc1O` , please.
### Response 31.2 µM (inactive)

### Prompt Recorded GI50 of `COC(=O)[C@](C)(Cc1ccccc1)NC(=O)[C@@H](C)N1[C@@H](c2ccccc2)COC1(C)C` , please.
### Response 29.1 µM (inactive)

### Prompt Recorded GI50 of `CC(=O)O[C@H]1CC[C@@]2(C)C(=CC[C@@H]3[C@@H]2CC[C@]2(C)NC(=O)/C(=C\c4ccccc4)C[C@@H]32)C1` , please.
### Response 18.4 µM (inactive)

### Prompt Recorded GI50 of `Cc1ccc(O)c(C(=O)/C=C/c2ccccc2)c1` , please.
### Response > 100 µM (inactive)

### Prompt Recorded GI50 of `C=C[C@@]1(C)CC(=O)[C@]2(O)[C@@]3(C)[C@@H](O)CCC(C)(C)[C@@H]3[C@H](O)[C@@H](OC(C)=O)[C@@]2(C)O1` , please.
### Response > 100 µM (inactive)
